Consider the following compounds; for each one, report its IC50.
- Test system: TNF-alpha production by PBMC
- assay.overview: TNF-alpha assay, LPS-stimulated PBMC, sandwich ELISA
- Assay type: cell-based, human
- condition.description: Table 7; same conditions as example 26; read-out: TNFα IC50
Answers are plain numbers, in µM.

Some entries whose results are on file:
Field request: IC50 | item: COc1ccc(-c2nc3c(=O)n(CCN4CCOCC4)c(=O)n(C)c3nc2Br)cc1OC [Example 82]
10

Field request: IC50 | item: Cn1c(=O)c2nc(-c3ccccc3)c(Cl)nc2n(CCc2ccccc2)c1=O [Example 60]
5.8

Field request: IC50 | item: CC(C)OC(=O)CCCn1c(=O)c2nc(-c3ccccc3)c(Cl)nc2n(C)c1=O [Example 87]
6.1

Provide each entry's IC50 from the list below.
1. CC(=O)Nn1c(=O)c2nc(-c3ccccc3)c(Cl)nc2n(C)c1=O [Example 69]
2. Cn1c(=O)n(CCCC(N)=O)c(=O)c2nc(-c3ccccc3)c(Cl)nc21 [Example 90]
3. Cn1c(=O)n(CCCC(=O)OC(C)(C)C)c(=O)c2nc(-c3ccccc3)c(Cl)nc21 [Example 89]
4. Cn1c(=O)c2nc(-c3ccc(O)cc3)c(Br)nc2n(C)c1=O [Example 84]
5. Cn1c(=O)n(CCc2ccccc2)c(=O)c2nc(-c3ccccc3)c(Cl)nc21 [Example 58]
6. CCOC(=O)CCCn1c(=O)c2nc(-c3ccc(OC)c(OC)c3)c(Br)nc2n(C)c1=O [Example 79]
7. Cn1c(=O)n(CCCC#N)c(=O)c2nc(-c3ccccc3)c(Cl)nc21 [Example 67]
8. Cn1c(=O)[nH]c(=O)c2nc(-c3ccccc3Cl)c(Cl)nc21 [Example 45]

1: 5.8; 2: 4.9; 3: 5.6; 4: 0.9; 5: 5.5; 6: 0.7; 7: 0.7; 8: 2.3
